assay: MTT cytotoxicity assay, Hep G2; format: cell-based; conditions: human, Hep G2 cells (human hepatocellular carcinoma), means ± SD of three replicates
readoutLabel: IC50 at 72 h

IC50 at 72 h lookup needed for O=C1C[C@@H](c2ccccc2)Oc2cc(O)cc(O)c21 [Compound 7, pinocembrin] , thanks.
> 100 µM

----------
test: MTT cytotoxicity assay, KB; format: cell-based; conditions: human, means ± SD of three replicates
readoutLabel: IC50 at 72 h

Can you share its IC50 at 72 h? I mean this compound: COc1cc2c(c(O)c1OC)C(=O)C[C@@H](c1ccccc1)O2 [Compound 6, onysilin]
> 100 µM

----------
Examples of compounds with documented IC50 at 72 h follow.
assay: MTT cytotoxicity assay, MCF7; type: cell-based; conditions: human, MCF-7 cells (human breast adenocarcinoma), means ± SD of three replicates

Dear colleague, I am looking for the recorded IC50 at 72 h of the following compound: O=C1C[C@@H](c2ccccc2)Oc2cc(O)cc(O)c21
> 100 µM

# lookup: IC50 at 72 h of CC(C)=CCc1cc2c(c(O)c1O)C(=O)C[C@@H](c1ccccc1)O2
> 100 µM

----------
experiment: MTT cytotoxicity assay, MCF7; assay type: cell-based; details: human, means ± SD of three replicates
readoutLabel: IC50 at 72 h

For the compound COc1cc2c(c(O)c1OC)C(=O)C[C@@H](c1ccccc1)O2 , what IC50 at 72 h is on record?
> 100 µM

----------
assay: MTT cytotoxicity assay, KB; assay type: cell-based; details: human, KB cells (human epidermoid carcinoma), means ± SD of three replicates
readoutLabel: IC50 at 72 h

What value of IC50 at 72 h has been recorded for this entry: O=C1C[C@@H](c2ccccc2)Oc2cc(O)cc(O)c21
> 100 µM

----------
test: MTT cytotoxicity assay, Hep G2; assay type: cell-based; conditions: human, means ± SD of three replicates
readoutLabel: IC50 at 72 h

Query: IC50 at 72 h; subject: COc1cc2c(c(O)c1OC)C(=O)C[C@@H](c1ccccc1)O2 [Compound 6, onysilin]
> 100 µM
